Entries annotated with measured activation at 10 µg/mL
System: Purkinje fiber of the right ventricular free wall (myocardial action potential)
measurement_notes: Influence on myocardial action potential duration time (APD75), isolated right ventricular free wall, microelectrode in Purkinje fiber
Assay type: cell-based, dog
condition: Canis lupus familiaris, 20 min, 10.0 μg/ml, 20 minutes' incubation, (B-A)/A×100, read-out: APD75 (%)
Counter-ions that a name gives are not always drawn.
readout_name: activation at 10 µg/mL

| molecule | reading |
| --- | --- |
| Cn1c(N2CCN(CC(O)c3ccc([N+](=O)[O-])cc3)CC2)cc(=O)n(C)c1=O (stereo not shown) [Compound 44, hydrochloride] | 21% |
| Cn1c(N2CCN(CCCOc3ccc([N+](=O)[O-])cc3C(=O)c3ccccc3)CC2)cc(=O)n(C)c1=O [Compound 80, oxalate] | 34% |
| Cn1c(N2CCN(CCCCc3ccc([N+](=O)[O-])cc3)CC2)cc(=O)n(C)c1=O [Compound 34, hydrochloride] | 25% |
| Cn1c(N2CCN(CCc3ccccc3[N+](=O)[O-])CC2)cc(=O)n(C)c1=O [Compound 10, oxalate] | 11% |

###

System: Purkinje fiber of the right ventricular free wall (myocardial action potential)
measurement_notes: Influence on myocardial action potential duration time (APD75), isolated right ventricular free wall, microelectrode in Purkinje fiber
Assay type: cell-based, dog
condition: Canis lupus familiaris, 20 min, 1.0 μg/ml, 20 minutes' incubation, (B-A)/A×100, read-out: APD75 (%)
Where a name gives a salt, the structure may show the parent alone.
Documented activation at 1 µg/mL across a set of molecules

| molecule | assay_target | unit_abbrev | activation at 1 µg/mL |
| --- | --- | --- | --- |
| Cn1c(N2CCN(CCCOc3ccc([N+](=O)[O-])cc3O)CC2)cc(=O)n(C)c1=O [Compound 162, hydrochloride] | Purkinje fiber of the right ventricular free wall (myocardial action potential) | % | 19 |
| CCOC(=O)CN(CCCc1ccc([N+](=O)[O-])cc1)CCNc1cc(=O)n(C)c(=O)n1C [Compound 175, oxalate] | Purkinje fiber of the right ventricular free wall (myocardial action potential) | % | 8 |
| Cn1c(N2CCN(CCCNc3ccc([N+](=O)[O-])cc3C(=O)c3ccccc3)CC2)cc(=O)n(C)c1=O [Compound 111, oxalate] | Purkinje fiber of the right ventricular free wall (myocardial action potential) | % | 13 |
| Cn1c(N2CCN(CCCOc3cccc([N+](=O)[O-])c3)CC2)cc(=O)n(C)c1=O [Compound 38, hydrochloride] | Purkinje fiber of the right ventricular free wall (myocardial action potential) | % | 15 |
| Cn1c(N2CCN(CCc3ccc(C(=O)c4ccccc4)cc3[N+](=O)[O-])CC2)cc(=O)n(C)c1=O [Compound 137, oxalate] | Purkinje fiber of the right ventricular free wall (myocardial action potential) | % | 32 |
| CCN(CCNCCCCc1ccc([N+](=O)[O-])cc1)c1cc(=O)n(C)c(=O)n1C | Purkinje fiber of the right ventricular free wall (myocardial action potential) | % | 20 |

###

Test system: ventricular muscle refractory period
measurement_notes: Influence on ventricular muscle refractory period (ERP)
Assay type: in vivo, mongrel dog
condition: Canis lupus familiaris, iv; 0.1 mg/kg, i.v.; (W-Y)/Y×100; read-out: ERP (%; extensibility of refractory period)
Structures can show the parent of a compound that is named as a salt.
Collected change in vivo at 0.1 mg/kg values appear next to each entry.

| compound | assay_target | unit_abbrev | change in vivo at 0.1 mg/kg |
| --- | --- | --- | --- |
| Cn1c(N2CCN(CCCOc3ccc([N+](=O)[O-])c(C(F)(F)F)c3)CC2)cc(=O)n(C)c1=O [Compound 150, oxalate] | ventricular muscle refractory period | % | 0 |
| CC(C)NC[C@@H](O)c1ccc(NS(C)(=O)=O)cc1 [d-sotalol, reference compound] | ventricular muscle refractory period | % | 1.7 |
| Cn1c(N2CCN(CCCOc3ccc([N+](=O)[O-])cc3O)CC2)cc(=O)n(C)c1=O [Compound 162, hydrochloride] | ventricular muscle refractory period | % | 0 |
| COc1cc([N+](=O)[O-])ccc1OCCCN1CCN(c2cc(=O)n(C)c(=O)n2C)CC1 [Compound 164, hydrochloride] | ventricular muscle refractory period | % | 0 |
